- target or system: Sigma-2 receptor (Homo sapiens, UniProt Q5BJF2)
- Sequence (Q5BJF2 whole entry, species assumed): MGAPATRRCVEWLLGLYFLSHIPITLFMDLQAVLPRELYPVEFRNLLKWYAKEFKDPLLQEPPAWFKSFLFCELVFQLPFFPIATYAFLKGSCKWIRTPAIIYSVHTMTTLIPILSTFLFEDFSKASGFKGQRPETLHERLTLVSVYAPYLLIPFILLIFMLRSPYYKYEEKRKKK
Entries and their pKi
Recall that pKi is obtained by taking minus log10 of the concentration measured in molar.

                                   compound  test_value
0  CNC(C)CCC=C(C)C (single isomer, unassigned) [Isomer 2]        5.25

Consider the compound shown here: CN[C@@H](C)CCC=C(C)C (single isomer, unassigned) [Isomer 1] What is its recorded pKi?
5.28

---

- target or system: Imidazoline-2 (I2) receptor
- assay info: central Imidazoline I2 receptor radioligand binding assay
reported property: Ki (nM)
Number only, in nM; omit the unit.

In [3]: df
Out[3]:
                                   molecule  test_value
0  CN[C@@H](C)CCC=C(C)C (single isomer, unassigned) [Isomer 1]        1100

Fill in the blank: the reported Ki of CNC(C)CCC=C(C)C (single isomer, unassigned) [Isomer 2] is ____.
1500

Entry source: patent US9403755B2
